Assign normalized growth to each entry below.
# Assay Overview: chemical genetic growth profiling, strain panel (AID 1159580);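 also: tested at 20 µM; growth read once vehicle control cultures reached saturation at 30 °C; 1 = growth at the plate median or of vehicle wells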
# Stated Conditions: S. cerevisiae deletion strains, growth OD, locus YOR316C, strain cot1, stronger effect = lower value
Screen size: about 5,500 compounds; about 2,000 (36%) were called active. Roughly 18% stayed inconclusive and do not appear here. This is one part of the list.
Answers are plain numbers.

Compound	normalized growth
CCCCNc1ccc(C(=O)OCCN(C)C)cc1	1.02
CCCCCCOc1ccccc1C(N)=O	0.567

Answer for every listed entry: what is its normalized growth? The entries follow.
1. CCCCOC(=O)c1ccccc1C(=O)OCCCC
2. CCCC(=O)O[C@]1(C(=O)CO)CCC2[C@@H]3CCC4=CC(=O)CC[C@]4(C)C3[C@@H](O)C[C@@]21C (some centres not stated)
3. COc1c2ccoc2c(OC)c2oc(=O)ccc12

output:
0.977
0.994
0.948

====

# Assay Overview: chemical genetic growth profiling, strain panel (AID 1159580);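 also: tested at 20 µM; growth read once vehicle control cultures reached saturation at 30 °C; 1 = growth at the plate median or of vehicle wells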
# Stated Conditions: S. cerevisiae deletion strains, growth OD, locus YOR080W, strain dia2, stronger effect = lower value
Hit rate of the full screen: of about 5,500 compounds, about 2,000 (36%) were called active. About 18% were inconclusive and are not listed. The list shows a part of the results.
So basically: is normalized growth under 1? Then class 1. Not under? Then class 0.

Use these answered entries as a reference point.
Compound	Qualitative Label
C[N+]1(C)C2CC(OC(=O)[C@@H](CO)c3ccccc3)CC1C1OC12 (stereo not given in full)	class 1
CC(=O)OCC[C@H](C)CCC=C(C)C	class 1
Cc1coc2c1C(=O)C(=O)c1c-2ccc2c1CCCC2(C)C	class 1
O=C1[C@H](CCC(O)c2ccc(F)cc2)[C@@H](c2ccc(O)cc2)N1c1ccc(F)cc1 (stereo not given in full)	class 1
Cc1c(S(=O)(=O)O)oc2c1C(=O)C(=O)c1c-2ccc2c1CCCC2(C)C	class 1

input: Is 1 strictly greater than the compound's reported normalized growth? compound: "CCCCOC(=O)c1ccc(N)cc1"
output: class 1

input: Hello, is normalized growth of the following compound strictly smaller than 1? "CC(C)(C)CC(C)(C)c1ccc(O)c(Cc2ccc(Cl)cc2Cl)c1"
output: class 0

input: Please indicate whether the reported normalized growth of C[C@@H]1C(=O)OC2[C@H](O)C34[C@@H]5OC(=O)[C@@]3(O[C@@H]3OC(=O)[C@H](O)[C@@]34[C@H](C(C)(C)C)[C@H]5O)[C@]21O (stereo not given in full) is strictly below 1.
output: class 1

input: Would you kindly verify if normalized growth of "CCCCCCOc1ccccc1C(N)=O" is strictly less than 1?
output: class 1

input: Is the reported normalized growth for O=C1CC2OCC=C3CN4CC[C@]56c7ccccc7N1C5[C@H]2[C@H]3CC46 (stereo not given in full) strictly below 1?
output: class 0

input: Is 1 strictly greater than the compound's reported normalized growth? compound: "C[C@H]1COC2=C1C(=O)C(=O)c1c2ccc2c1CCCC2(C)C"
output: class 1

====

# Assay Overview: chemical genetic growth profiling, strain panel (AID 1159580);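 also: tested at 20 µM; growth read once vehicle control cultures reached saturation at 30 °C; 1 = growth at the plate median or of vehicle wells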
# Stated Conditions: S. cerevisiae deletion strains, growth OD, locus YOR069W, strain VPS5, stronger effect = lower value
The campaign covered roughly 5,500 compounds. About 2,000 (36%) were called active. About 18% were inconclusive and are not listed. Some of the results follow.
Measured Endpoint: normalized growth
Answers are plain numbers.

Molecule	normalized growth
COc1cc(-c2coc3cc(OCc4ccccc4)c(OC)c(O)c3c2=O)cc(OCc2ccccc2)c1OC	0.99
COc1cc(-c2coc3cc(OCc4ccccc4)c(OC)c(O)c3c2=O)cc(O)c1OC	0.834
CC1C[C@H]2CC(=O)[C@H]3CCCN4CCC[C@H]2[C@]34C1 (some centres undefined)	1.01
Oc1ccc(Cl)cc1Cc1cc(Cl)ccc1O	0.0593
Cc1ccc(Cl)c(Nc2ccccc2C(=O)O)c1Cl	0.891
CC(C)C(C)/C=C/C(C)[C@H]1CCC2C3=CCC4CC(=O)CC[C@]4(C)C3CC[C@@]21C (some centres undefined)	1.02
O=C(O)CN1C(=O)c2cccc3cccc(c23)C1=O	0.998
CN1C(C(=O)Nc2ccccn2)=C(O)c2ccccc2S1(=O)=O	0.966
Cc1cccc(C(=O)O)c1O	1.02
COc1cc(-c2coc3cc(OC)c(OC)c(OC)c3c2=O)cc(OC)c1OC	0.989

Dear reader, for each entry below, please note its normalized growth.
1. Cc1cccc(Nc2ccccc2C(=O)O)c1C
2. COc1cc2occ(-c3ccccc3)c(=O)c2c(OC)c1C
3. CC(C)C(C)/C=C/C(C)C1CCC2C3=CC=C4CC(O)CCC4(C)C3CCC21C (centres undefined)
4. OCc1ccccc1O

output:
[0.893, 0.968, 0.98, 1.01]
